Form field: TGI (one value per entry).
tested on: OVCAR-4 ovarian; assay: NCI tumour cell line growth inhibition, 48 h
property_name: TGI

compound	assay_value
N#Cc1c(-c2ccccc2)cc(-c2ccccc2)n(C2OC(CO)C(O)C(O)C2O)c1=S (stereo unspecified)	> 100 µM
C=CCOc1cccc(C2(O)c3ccccc3C3=NCCCN32)c1 (stereo unspecified)	> 80.1 µM
O=C1/C(=C\c2ccc(O)cc2)CCC/C1=C/c1ccc(Cl)c(Cl)c1	5.93 µM
CCOc1ccccc1N1C(=O)C(=O)C(c2nc3ccccc3o2)C(=O)C1=O	45.7 µM
COC(=O)/C(C)=C(/CCC1(C)OCCO1)O[Si](C)(C)C	> 100 µM
CSc1nc(C#N)c(/N=C\N(C)C)n1C	> 100 µM

###

system: COLO 205 colon; assay: NCI tumour cell line growth inhibition, 48 h; in the data active = GI50 below about 0.43 µM; inactive = the rest
Labels: 1.0 = active, 0.0 = inactive

chemical_string	assigned_category
FC(F)(F)c1ccc(Nc2nc(-c3c(C(F)(F)F)nc4ccccn34)cs2)cc1	1.0
C#Cc1c(F)ccc2cc(O)cc(-c3ncc4c(N5CC6CCC(C5)N6)nc(OC[C@@]56CCCN5C[C@H](F)C6)nc4c3F)c12	0.0
O=C(CCCCCCCCC(=O)N/N=C\c1ccccc1O)N/N=C\c1ccccc1O	0.0
C=C1C(=O)O[C@H]2[C@H]1CC/C(COC(=O)NCc1ccc(Cn3c(=O)sn(CCCl)c3=O)cc1)=C\CC[C@@]1(C)O[C@@H]21	0.0
C(#Cc1ccccc1C#Cc1cccs1)c1cccs1	0.0
C[C@H]1[C@H](C)CC[C@]2(CO)CC[C@]3(C)C(=CC[C@@H]4[C@@]5(C)CCCNC(C)(C)[C@@H]5CC[C@]43C)[C@H]12	0.0
CCN(CC)CCCCNc1c2ccccc2[n+](C)c2c1[nH]c1ccccc12	1.0
COc1cc(/C=C/C(=O)c2cccc(Nc3nc(Nc4ccccc4)nc(Nc4ccccc4)n3)c2)cc(OC)c1OC	0.0

###

test system: IGROV1 ovarian; experiment: NCI tumour cell line growth inhibition, 48 h

compound	TGI
CC(C)(C)OC(=O)N1CCN(CCn2cc(C(F)(F)F)c3c(Cl)ncnc32)CC1	3.74 µM
CCOC(=O)c1cnc2oc3ccc(O)cc3c2c1C	> 100 µM
CC[C@]1(Cc2ccc(OC)c(OC)c2)C=[N+]([O-])O[C@H](OC2CCCC2(c2ccccc2)c2ccccc2)[C@@H]1OC(=O)c1ccccc1 (some centres undefined)	> 100 µM
Cc1ccc2nc(NC(=O)C(=O)C(C#N)c3nc4ccccc4s3)sc2c1 (centres undefined)	51.8 µM
Cc1ccc2c(c1)[nH]c(=S)n2/C=C1\C(=O)Oc2ccccc2C1=O	> 100 µM
CN1C(=Nc2ccccc2)SC1=Nc1ccccc1	> 100 µM
COc1cc(/C=C/C(=O)c2cccc(Nc3nc(Nc4ccccc4)nc(Nc4ccccc4)n3)c2)cc(OC)c1OC	> 100 µM
CCOC(=O)/C(C#N)=C\c1ccc(N(CCC(=O)O)CCC(=O)O)c(I)c1	> 10 µM
COC(=O)/C(C)=C(/CCC1(C)OCCO1)O[Si](C)(C)C	> 100 µM
CCCCCCCCCCCCCCCCCCNc1ccn(C2OC(COP(=O)(O)OCC3OC(n4cc(F)c(=O)[nH]c4=O)CC3O)C(O)C2O)c(=O)n1 (centres undefined)	35.8 µM
O=C(O)CNC(=O)c1ccc(-c2ccccc2)cc1	> 100 µM
CCOC(CN(C)C(=O)Nc1cccc2ccccc12)OCC	> 10 µM
O=[N+]([O-])O.[Cu+2].[NH-]CC[NH-].[NH-]CC[NH-]	> 10 µM
C=C1C(=O)O[C@H]2[C@H]1CC/C(COC(=O)NCc1ccc(Cn3c(=O)sn(CCCl)c3=O)cc1)=C\CC[C@@]1(C)O[C@@H]21	6.79 µM
COc1ccc(-c2c(C#N)c(N)n(C3OCC(OC(C)=O)C(OC(C)=O)C3OC(C)=O)c(=S)c2C#N)cc1 (centres undefined)	> 100 µM
CC1C2(C)OC(=N)C(C#N)(C(c3ccccc3)O2)C1(C#N)C#N (centres undefined)	> 100 µM
Cc1ccc(S(=O)(=O)N/N=C/c2c(O)ccc3ccccc23)cc1	84.5 µM
COc1cc2c(oc(=O)c3c4oc([Si](C)(C)C)cc4cc(OC)c23)c2cccc(OCc3ccccc3)c12	> 100 µM
C/C(=N\NS(=O)(=O)c1ccc(C)cc1)C(CN1CCCCC1)C(c1ccccc1)c1c(O)c2ccccc2oc1=O (centres undefined)	> 100 µM
